Assay Text: inhibition of PAO1 biofilm formation – strain PAO1, LB-PBS medium, absorbance 600 nm, primary screen (AID 1176); note: test concentration not given here
Test Settings: P. aeruginosa PAO1 growth/biofilm, A600, 12 h; higher = more signal
# if value of z-score reaches 0.03, tag 1.0; if it stays below, tag 0.0

Molecule | Assigned Class
COc1cc2c(cc1O)C=[N+](C)CC2 | 1.0
C[C@@H]1OC=C2[C@@H](O)[C@H]3O[C@H]3C(=O)[C@]23[C@H]1[C@H]1C2=C([C@@H](O)[C@H]4O[C@H]4C2=O)[C@@H]3O[C@@H]1C | 0.0
CCc1cc2c(nc1CC)CCN(CCC(C)=NOC)C2 | 1.0
COC(=O)[C@@]1(Cc2ccccc2)[C@H]2c3cc(C(=O)N(C)C)[nH]c3C[C@H]2CN1C(=O)c1ccccc1 | 1.0
CCCc1cc2c(n1CCO)C(C)C1CN(C(=O)c3ccccc3)C(C)(C(=O)OC)C21 (stereo not drawn) | 0.0
COC(=O)C1(C)C=C2C(=C(C)C(=O)C2C)CN1 (stereo not drawn) | 1.0
C=C(CC1(C(C)NP(=O)(c2ccccc2)c2ccccc2)CC1)c1ccccc1 (stereo not drawn) | 1.0
CCOC(=O)[C@H]1CC=C2C(=O)Oc3ccccc3[C@@H]21 | 1.0
OCc1ccc(C2=CC(c3cccs3)N(Cc3cccc(OC(F)(F)F)c3)CC2)cc1 (stereo not drawn) | 0.0
CN1CCc2nc(CO)c(CO)cc2C1 | 0.0
CCCc1cc2c(n1Cc1ccco1)C(C)C1CN(C(=O)c3ccccc3)C(C)(C(=O)OC)C21 (stereo not drawn) | 1.0
C[C@@H]1Cc2c(cnc3c2CN(C)CC3)CO1 | 0.0
COC(=O)[C@H]1C(=O)c2ccccc2O[C@@](C(=O)OC)(c2ccccc2)[C@@H]1c1ccccc1 | 0.0
CCCc1cc2c(n1Cc1ccc(C)cc1)C(C)C1CN(C(=O)c3ccccc3)C(C)(C(=O)OC)C21 (stereo not drawn) | 1.0
OCc1ccc(C2=CC(C3CC3)N(Cc3sc4ccccc4c3Cl)CC2)cc1 (stereo not drawn) | 0.0
COc1cc2c(cc1O)C(C)N(C)CC2 (stereo not drawn) | 0.0
CCOC(=O)[C@H]1CC=C2C(=O)Oc3ccc(Br)cc3[C@@H]21 | 1.0
C=C(CC1(CNP(=O)(c2ccccc2)c2ccccc2)CC1)c1ccccc1 | 1.0

====

Target Or System: Fibroblast growth factor 10 (Homo sapiens) (UniProt O15520)
Sequence (O15520 whole entry, looked up): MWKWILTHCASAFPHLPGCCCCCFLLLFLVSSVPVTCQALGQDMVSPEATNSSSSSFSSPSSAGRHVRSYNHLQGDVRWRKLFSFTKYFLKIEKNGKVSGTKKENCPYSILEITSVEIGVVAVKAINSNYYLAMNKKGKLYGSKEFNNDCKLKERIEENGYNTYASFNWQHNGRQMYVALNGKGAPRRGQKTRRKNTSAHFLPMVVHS
Assay Text: compounds binding fibroblast growth factor 10 – biochemical, small-molecule microarray, 635 nm fluorescence, primary screen (AID 1102)
Test Settings: FGF10 binding, fluorescence 635 nm, higher = more signal
# composite z-score annotations
Readout Label: composite z-score

Compound | Value Observed
CCCc1cc2c(n1CCO)C(C)C1CN(C(=O)c3ccccc3)C(C)(C(=O)OC)C21 (stereo not given) | 0.0807
COC(=O)NCC=Cc1nc(CCC=CC(=O)O[C@H]2CC3CC(=O)O[C@@H](C=CCC(C)C)C[C@@H]4CC[C@H](C)[C@@H](C[C@@H](OC)C[C@H](C2)O3)O4)co1 | -0.512
COc1cc2c(cc1O)C=[N+](C)CC2 | 0.668
COC(=O)[C@H]1[C@H](c2ccccc2)C(=O)[C@]2(O)c3ccccc3O[C@@]12c1ccccc1 | 0.37
O=P(c1ccccc1)(c1ccccc1)N1CC2(CC2)CC(O)(c2ccccc2)C1 (stereo not given) | 0.11
C=C(CC1(CNP(=O)(c2ccccc2)c2ccccc2)CC1)c1ccccc1 | 0.213
COc1cc2c(cc1O)C(C)N(C)CC2 (stereo not given) | -0.0182
CN1CCc2nc(CO)c(CO)cc2C1 | 0.297
COC(=O)[C@@]1(Cc2ccccc2)[C@H]2c3cc(C(=O)N(C)C)[nH]c3C[C@H]2CN1C(=O)c1ccccc1 | -0.36
CN1CCC(c2ccc(CO)cc2)=CC1C1CC1 (stereo not given) | 0.179

====

Assay Text: small molecules captured by biotinylated probe aFGF10 – biochemical, small-molecule microarray, fluorescence 635/667, stem cell growth factor project, primary screen (AID 1071);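 note: score merges 667 nm spot intensity and signal to noise from triplicate slides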
Test Settings: higher = more signal; small-molecule microarray, probe aFGF10, fluorescence unless noted
# if value of composite z-score reaches -0.2, tag Satisfied; if it stays below, tag Not satisfied

Compound | Assigned Class
OCc1ccc(C2=CC(C3CC3)N(Cc3sc4ccccc4c3Cl)CC2)cc1 (stereo unspecified) | Satisfied
CN1CCc2nc(CO)c(CO)cc2C1 | Satisfied
COc1cc2c(cc1O)C=[N+](C)CC2 | Satisfied
COC(=O)[C@H]1C(=O)c2ccccc2O[C@@](C(=O)OC)(c2ccccc2)[C@@H]1c1ccccc1 | Satisfied
O=P(c1ccccc1)(c1ccccc1)N1CC2(CC2)CC(O)(c2ccccc2)C1 (stereo unspecified) | Satisfied
c1ccc(-c2cc3c(nc2-c2ccccc2)CCNC3)cc1 | Not satisfied

====

Assay Text: compounds binding Alexa647 anti-His antibody – biochemical, small-molecule microarray, 635 nm fluorescence, artefact control for SMM control protein annotation, primary screen (AID 1128);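 note: score merges feature fluorescence with signal-to-noise for each printed compound spot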
Test Settings: higher = more signal
# if value of composite z-score reaches 0.4, tag rule met; if it stays below, tag rule not met

Molecule | Assigned Class
COC(=O)NCC=Cc1nc(CCC=CC(=O)O[C@H]2CC3CC(=O)O[C@@H](C=CCC(C)C)C[C@@H]4CC[C@H](C)[C@@H](C[C@@H](OC)C[C@H](C2)O3)O4)co1 | rule not met
O=P(c1ccccc1)(c1ccccc1)N1CC2(CC2)CC(O)(c2ccccc2)C1 (stereo unspecified) | rule met
OCc1ccc(C2=CC(c3cccs3)N(Cc3cccc(OC(F)(F)F)c3)CC2)cc1 (stereo unspecified) | rule met
COc1cc2c(cc1O)C(C)N(C)CC2 (stereo unspecified) | rule not met
CCCC=C(CCC)[C@@H](NP(=O)(c1ccccc1)c1ccccc1)c1ccccc1 | rule not met

====

Target Or System: NADPH oxidase 2 (Homo sapiens) (UniProt P04839)
Sequence (P04839 whole entry, looked up): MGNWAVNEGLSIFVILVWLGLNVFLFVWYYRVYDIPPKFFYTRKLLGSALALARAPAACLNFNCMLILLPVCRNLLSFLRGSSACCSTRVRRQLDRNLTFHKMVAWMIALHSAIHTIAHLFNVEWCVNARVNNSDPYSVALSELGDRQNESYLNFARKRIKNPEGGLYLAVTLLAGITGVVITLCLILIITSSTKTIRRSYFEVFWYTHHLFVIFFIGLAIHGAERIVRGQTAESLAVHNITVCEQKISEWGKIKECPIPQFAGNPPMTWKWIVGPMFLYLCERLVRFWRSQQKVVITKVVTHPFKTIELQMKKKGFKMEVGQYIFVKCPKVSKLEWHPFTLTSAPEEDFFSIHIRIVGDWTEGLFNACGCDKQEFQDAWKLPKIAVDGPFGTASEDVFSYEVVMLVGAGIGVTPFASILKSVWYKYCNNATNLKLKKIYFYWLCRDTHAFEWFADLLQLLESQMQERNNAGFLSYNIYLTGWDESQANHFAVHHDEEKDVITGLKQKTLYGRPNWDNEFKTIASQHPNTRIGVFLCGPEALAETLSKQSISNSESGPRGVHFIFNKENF
Assay Text: compounds shifting NOX2 Amplex Red fluorescence – cell-based, HEK293-NOX2, PMA-stimulated, NOX inhibitor project, primary screen (AID 1159); note: test concentration not given here
Test Settings: 45 min; higher = more signal, called active from +8 up or from −8 down unless noted
Active and inactive are the calls of the source.
# z-score annotations

Compound | Target Or System | z-score
COC(=O)[C@H]1C(=O)c2ccccc2O[C@@](C(=O)OC)(c2ccccc2)[C@@H]1c1ccccc1 | NADPH oxidase 2 (Homo sapiens) (UniProt P04839) | 1.19 (inactive)
CCCc1cc2c(n1CCO)C(C)C1CN(C(=O)c3ccccc3)C(C)(C(=O)OC)C21 (centres undefined) | NADPH oxidase 2 (Homo sapiens) (UniProt P04839) | 0.0961 (inactive)
C[C@@H]1OC=C2[C@@H](O)[C@H]3O[C@H]3C(=O)[C@]23[C@H]1[C@H]1C2=C([C@@H](O)[C@H]4O[C@H]4C2=O)[C@@H]3O[C@@H]1C | NADPH oxidase 2 (Homo sapiens) (UniProt P04839) | 1.2 (inactive)
c1ccc(-c2cc3c(nc2-c2ccccc2)CCNC3)cc1 | NADPH oxidase 2 (Homo sapiens) (UniProt P04839) | 1.18 (inactive)

====

Target Or System: Neurogenic locus notch homolog protein 2 (Homo sapiens) (UniProt Q04721)
Sequence (Q04721 whole entry, looked up): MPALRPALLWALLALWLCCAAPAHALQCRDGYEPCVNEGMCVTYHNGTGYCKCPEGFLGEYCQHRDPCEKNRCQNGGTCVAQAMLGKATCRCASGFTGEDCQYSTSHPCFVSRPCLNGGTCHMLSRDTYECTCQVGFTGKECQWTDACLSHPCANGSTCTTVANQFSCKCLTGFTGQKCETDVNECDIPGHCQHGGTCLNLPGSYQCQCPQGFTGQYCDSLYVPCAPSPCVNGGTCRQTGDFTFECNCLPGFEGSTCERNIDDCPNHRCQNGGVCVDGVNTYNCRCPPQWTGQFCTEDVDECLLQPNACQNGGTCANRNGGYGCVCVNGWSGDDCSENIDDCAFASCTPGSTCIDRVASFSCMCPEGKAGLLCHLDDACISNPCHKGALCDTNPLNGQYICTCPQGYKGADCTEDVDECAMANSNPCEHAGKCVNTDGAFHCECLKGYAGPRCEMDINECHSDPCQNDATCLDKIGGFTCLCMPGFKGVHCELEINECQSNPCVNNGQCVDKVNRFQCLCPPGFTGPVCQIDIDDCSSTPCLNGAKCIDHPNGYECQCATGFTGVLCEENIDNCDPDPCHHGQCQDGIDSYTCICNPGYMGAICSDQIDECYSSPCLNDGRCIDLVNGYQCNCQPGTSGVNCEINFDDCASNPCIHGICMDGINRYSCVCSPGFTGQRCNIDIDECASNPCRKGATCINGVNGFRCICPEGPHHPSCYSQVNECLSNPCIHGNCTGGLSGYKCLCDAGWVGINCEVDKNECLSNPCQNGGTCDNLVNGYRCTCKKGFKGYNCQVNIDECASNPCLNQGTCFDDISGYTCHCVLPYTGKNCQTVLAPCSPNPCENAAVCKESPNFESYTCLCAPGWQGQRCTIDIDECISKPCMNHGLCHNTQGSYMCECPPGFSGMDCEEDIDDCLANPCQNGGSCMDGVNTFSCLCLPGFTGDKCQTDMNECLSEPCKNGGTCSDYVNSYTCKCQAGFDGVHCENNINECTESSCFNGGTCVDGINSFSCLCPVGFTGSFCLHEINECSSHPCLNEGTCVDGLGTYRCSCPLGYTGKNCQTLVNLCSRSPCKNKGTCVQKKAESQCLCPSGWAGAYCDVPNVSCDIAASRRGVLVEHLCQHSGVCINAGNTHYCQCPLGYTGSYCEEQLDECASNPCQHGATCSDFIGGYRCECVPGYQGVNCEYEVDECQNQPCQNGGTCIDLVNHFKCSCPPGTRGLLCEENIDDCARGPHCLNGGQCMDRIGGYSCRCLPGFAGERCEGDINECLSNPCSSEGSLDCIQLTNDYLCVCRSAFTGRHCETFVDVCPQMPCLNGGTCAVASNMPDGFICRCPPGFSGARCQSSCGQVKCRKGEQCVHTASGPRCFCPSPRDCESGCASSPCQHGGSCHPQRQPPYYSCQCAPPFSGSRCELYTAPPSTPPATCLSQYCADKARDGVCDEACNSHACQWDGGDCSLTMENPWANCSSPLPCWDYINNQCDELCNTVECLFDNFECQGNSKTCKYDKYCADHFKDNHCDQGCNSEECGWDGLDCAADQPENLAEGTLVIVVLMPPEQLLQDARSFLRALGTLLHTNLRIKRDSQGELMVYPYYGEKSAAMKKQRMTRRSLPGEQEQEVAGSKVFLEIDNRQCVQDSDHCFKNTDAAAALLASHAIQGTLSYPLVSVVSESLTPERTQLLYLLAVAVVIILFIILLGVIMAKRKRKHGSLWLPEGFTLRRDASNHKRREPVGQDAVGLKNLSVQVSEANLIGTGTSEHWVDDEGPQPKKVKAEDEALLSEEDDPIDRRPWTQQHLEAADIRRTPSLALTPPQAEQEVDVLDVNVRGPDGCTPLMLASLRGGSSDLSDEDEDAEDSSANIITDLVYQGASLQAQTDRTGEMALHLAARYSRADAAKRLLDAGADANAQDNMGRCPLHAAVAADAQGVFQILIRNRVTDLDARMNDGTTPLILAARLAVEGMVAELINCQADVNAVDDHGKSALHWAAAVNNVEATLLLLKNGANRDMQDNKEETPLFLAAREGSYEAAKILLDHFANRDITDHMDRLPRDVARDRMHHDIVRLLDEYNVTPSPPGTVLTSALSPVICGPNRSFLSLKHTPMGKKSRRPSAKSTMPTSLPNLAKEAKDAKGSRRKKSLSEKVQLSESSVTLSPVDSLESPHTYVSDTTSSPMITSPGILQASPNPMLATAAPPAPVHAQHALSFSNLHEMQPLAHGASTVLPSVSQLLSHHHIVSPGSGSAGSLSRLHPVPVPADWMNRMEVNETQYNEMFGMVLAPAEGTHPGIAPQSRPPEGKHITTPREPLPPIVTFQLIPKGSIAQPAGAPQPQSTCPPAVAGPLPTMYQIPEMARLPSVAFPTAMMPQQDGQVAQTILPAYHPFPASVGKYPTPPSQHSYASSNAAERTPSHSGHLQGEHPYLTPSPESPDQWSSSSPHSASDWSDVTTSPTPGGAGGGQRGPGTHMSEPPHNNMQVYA
Assay Text: small molecules binding Notch2 protein – biochemical, small-molecule microarray, 635 nm fluorescence, stem cell growth factors, primary screen (AID 1073)
Test Settings: higher = more signal
# composite z-score annotations
Readout Label: composite z-score

Compound | Target Or System | Readout Label | Value Observed
COC(=O)[C@@]1(Cc2ccccc2)[C@H]2c3cc(C(=O)N(C)C)[nH]c3C[C@H]2CN1C(=O)c1ccccc1 | Neurogenic locus notch homolog protein 2 (Homo sapiens) (UniProt Q04721) | composite z-score | 0.335
COc1cc2c(cc1O)C=[N+](C)CC2 | Neurogenic locus notch homolog protein 2 (Homo sapiens) (UniProt Q04721) | composite z-score | -0.718
c1ccc(-c2cc3c(nc2-c2ccccc2)CCNC3)cc1 | Neurogenic locus notch homolog protein 2 (Homo sapiens) (UniProt Q04721) | composite z-score | -0.634
OCc1ccc(C2=CC(C3CC3)N(Cc3sc4ccccc4c3Cl)CC2)cc1 (stereo not drawn) | Neurogenic locus notch homolog protein 2 (Homo sapiens) (UniProt Q04721) | composite z-score | 0.166
C=C(CC1(CNP(=O)(c2ccccc2)c2ccccc2)CC1)c1ccccc1 | Neurogenic locus notch homolog protein 2 (Homo sapiens) (UniProt Q04721) | composite z-score | 0.777
O=P(c1ccccc1)(c1ccccc1)N1CC2(CC2)CC(O)(c2ccccc2)C1 (stereo not drawn) | Neurogenic locus notch homolog protein 2 (Homo sapiens) (UniProt Q04721) | composite z-score | 1.65
CCCc1cc2c(n1Cc1cccc(Cl)c1)C(C)C1CN(C(=O)c3ccccc3)C(C)(C(=O)OC)C21 (stereo not drawn) | Neurogenic locus notch homolog protein 2 (Homo sapiens) (UniProt Q04721) | composite z-score | 1.51
CCCc1cc2c(n1CCO)C(C)C1CN(C(=O)c3ccccc3)C(C)(C(=O)OC)C21 (stereo not drawn) | Neurogenic locus notch homolog protein 2 (Homo sapiens) (UniProt Q04721) | composite z-score | 1.66
OCc1ccc(C2=CC(c3cccs3)N(Cc3cccc(OC(F)(F)F)c3)CC2)cc1 (stereo not drawn) | Neurogenic locus notch homolog protein 2 (Homo sapiens) (UniProt Q04721) | composite z-score | -0.515
CCOC(=O)[C@H]1CC=C2C(=O)Oc3ccc(Br)cc3[C@@H]21 | Neurogenic locus notch homolog protein 2 (Homo sapiens) (UniProt Q04721) | composite z-score | -0.664
COC(=O)[C@H]1C(=O)c2ccccc2O[C@@](C(=O)OC)(c2ccccc2)[C@@H]1c1ccccc1 | Neurogenic locus notch homolog protein 2 (Homo sapiens) (UniProt Q04721) | composite z-score | 0.343
COC(=O)[C@H]1[C@H](c2ccccc2)C(=O)[C@]2(O)c3ccccc3O[C@@]12c1ccccc1 | Neurogenic locus notch homolog protein 2 (Homo sapiens) (UniProt Q04721) | composite z-score | 0.472
CN1CCC(c2ccc(CO)cc2)=CC1C1CC1 (stereo not drawn) | Neurogenic locus notch homolog protein 2 (Homo sapiens) (UniProt Q04721) | composite z-score | -0.616
CCCC=C(CCC)[C@@H](NP(=O)(c1ccccc1)c1ccccc1)c1ccccc1 | Neurogenic locus notch homolog protein 2 (Homo sapiens) (UniProt Q04721) | composite z-score | 1.25
CCOC(=O)[C@H]1CC=C2C(=O)Oc3ccccc3[C@@H]21 | Neurogenic locus notch homolog protein 2 (Homo sapiens) (UniProt Q04721) | composite z-score | -0.316
C[C@@H]1OC=C2[C@@H](O)[C@H]3O[C@H]3C(=O)[C@]23[C@H]1[C@H]1C2=C([C@@H](O)[C@H]4O[C@H]4C2=O)[C@@H]3O[C@@H]1C | Neurogenic locus notch homolog protein 2 (Homo sapiens) (UniProt Q04721) | composite z-score | 0.121
COC(=O)[C@@]1(Cc2ccccc2)[C@H]2c3cc(C(=O)N(C)C)n(C)c3C[C@H]2CN1C(=O)c1ccccc1 | Neurogenic locus notch homolog protein 2 (Homo sapiens) (UniProt Q04721) | composite z-score | 1.59
CCCc1cc2c(n1Cc1ccco1)C(C)C1CN(C(=O)c3ccccc3)C(C)(C(=O)OC)C21 (stereo not drawn) | Neurogenic locus notch homolog protein 2 (Homo sapiens) (UniProt Q04721) | composite z-score | 1.66
